Several publications report pIC50 on UniProt:P21397; those values are gathered here.
pIC50: −log10 of the molar value.

Sample records with pIC50:
compound: O=C(Nc1ccc([C@@H]2C[C@H]2NCc2ccccc2F)cc1)c1ccccc1 (relative stereo)
pIC50: 5.22
//
compound: O=c1c2ccc(OCc3noc(-c4cc(C(F)(F)F)ccc4C(F)(F)F)n3)cc2ncn1-c1ccc(O)cc1
pIC50: < 5.00
//
compound: O=C(Nc1ccc([C@@H]2C[C@H]2NCc2ccccc2)cc1)c1cccc(Cc2ccccc2)c1 (relative stereo)
pIC50: 5.46
//
compound: CC(C)(O)C#Cc1ccc2c(=O)c(-c3ccc(NS(C)(=O)=O)cc3)coc2c1
pIC50: < 4.04
//
compound: Cc1cccc(C(=O)Nc2ccc([C@@H]3C[C@H]3NCc3ccccc3)cc2)c1 (relative stereo)
pIC50: 5.25

The recorded pIC50 with UniProt:P21397 for `Cc1cccc(Cl)c1C(=O)NCc1ccc(-c2cc[nH]c(=O)c2)cc1` was < 3.89

----------
Literature-derived IC50 for Amine oxidase [flavin-containing] A (Homo sapiens) follows.

Recorded results for 5 molecules are shown here.
molecule: CS(=O)(=O)Nc1ccc(-c2coc3cc(C#Cc4cncnc4)ccc3c2=O)cc1
IC50: > 130 µM
//
molecule: COC[C@H](C)N1C(=O)c2ccc(OCc3ccc(C#N)cc3)cc2C1=O
IC50: 6.2 µM
//
molecule: O=C(Nc1cccc(C(=O)Nc2ccc([C@@H]3C[C@H]3NCc3ccccc3)cc2)c1)c1ccccc1 (relative stereo)
IC50: > 10 µM
//
molecule: CN1CCC(N[C@@H]2C[C@H]2c2ccc(NC(=O)c3ccc(-c4ccccc4)cc3)cc2)CC1 (relative stereo)
IC50: > 10 µM
//
molecule: C[C@H](NCc1ccc(-c2ccccc2Cl)cc1)C(N)=O
IC50: > 100 µM

Let us move to another entry and its IC50.
Note to self: IC50 of `NC(=O)[C@H](CO)N1C(=O)c2ccc(OCc3ccc(F)cc3)cc2C1=O` with Amine oxidase [flavin-containing] A (Homo sapiens) was > 10 µM

----------
IC50 for UniProtKB P21397 - collated from the literature.

As a guide, the following entries are already answered.
compound: CN1CCC(C(=O)N2CC(C#Cc3ccc4c(=O)c(-c5ccc(NS(C)(=O)=O)cc5)coc4c3)C2)CC1
IC50: > 130 µM
//
compound: Cc1nccc(Cl)c1C(=O)NCc1ccc(-c2cccc(=O)[nH]2)cc1
IC50: > 10 µM
//
compound: CN(C)CCC(=O)N1CC(C#Cc2ccc3c(=O)c(-c4ccc(NS(C)(=O)=O)cc4)coc3c2)C1
IC50: 46.9 µM
//
compound: CC(=Cc1ccc(OCc2cccc(F)c2)cc1)C(N)=O
IC50: > 10 µM
//
compound: O=C(Nc1ccc([C@@H]2C[C@H]2NCc2ccccc2)cc1)c1cccc(Oc2ccccc2)c1 (relative stereo)
IC50: 3.3 µM

The compound `O=c1c2ccc(OCc3noc(-c4cc(C(F)(F)F)cc(C(F)(F)F)c4)n3)cc2ncn1-c1ccc(O)cc1` , when measured on UniProtKB P21397, yielded IC50 of > 10 µM

The measured IC50 that Cc1c(C(=O)Nc2ccc([C@@H]3C[C@H]3NCC3CC3)cc2)cnn1-c1ccccc1 (relative stereo) showed for UniProtKB P21397 is > 10 µM

Measured IC50 (UniProtKB P21397), entry `O=C(NCc1ccc(-c2[nH]c(=O)ccc2F)nc1)c1c(Cl)cccc1Cl` : > 10 µM

Recorded IC50 for `O=C(NCc1ccc(-c2cc[nH]c(=O)c2)cc1)c1c(F)cccc1F` on UniProtKB P21397 was > 130 µM

UniProtKB P21397 data for `CNC(=O)c1cnn(C/C(=C/F)CN)c1` ; its IC50: > 100 µM

Let me check: O=C(Nc1ccc([C@@H]2C[C@H]2NC2c3ccccc3-c3ccccc32)cc1)c1ccccc1 (relative stereo) , system UniProtKB P21397, measured IC50 is > 10 µM
